# SYSTEM: feline FcRn complex (FcRn-α subunit and β-microglobulin), biotin labeled (feline)
# PROCEDURE_TEXT: SPR, pH 6
READOUT_LABEL: Kd (nM)
Your answer is read as nM, so omit the unit and give the number.

[
  {
    "BINDER": "feline IgG1a S252Y/D312P/S434Y (antibody, part only; not given: Variable domains, not shown: another chain or arm of the molecule; small tags and cut ends) constant: ASTTAPSVFPLAPSCGTTSGATVALACLVLGYFPEPVTVSWNSGALTSGVHTFPAVLQASGLYSLSSMVTVPSSRWLSDTFTCNVAHPPSNTKVDKTVRKTDHPPGPKPCDCPKCPPPEMLGGPSIFIFPPKPKDTLYISRTPEVTCLVVDLGPDDSDVQITWFVDNTQVYTAKTSPREEQFNSTYRVVSVLPILHQPWLKGKEFKCKVNSKSLPSPIERTISKAKGQPHEPQVYVLPPAQEELSRNKVSVTCLIKSFHPPDIAVEWEITGQPEPENNYRTTPPQLDSDGTYFVYSKLSVDRSHWQRGNTYTCSVSHEALHYHHTQKSLTQSPGK",
    "READOUT_LABEL": "Kd",
    "OBSERVED_RESULT": 0.0221
  }
]

Now for another entry.
Exercise: What measured Kd goes with feline IgG1a S434E (antibody, part only; not given: Variable domains, not shown: another chain or arm of the molecule) constant: ASTTAPSVFPLAPSCGTTSGATVALACLVLGYFPEPVTVSWNSGALTSGVHTFPAVLQASGLYSLSSMVTVPSSRWLSDTFTCNVAHPPSNTKVDKTVRKTDHPPGPKPCDCPKCPPPEMLGGPSIFIFPPKPKDTLSISRTPEVTCLVVDLGPDDSDVQITWFVDNTQVYTAKTSPREEQFNSTYRVVSVLPILHQDWLKGKEFKCKVNSKSLPSPIERTISKAKGQPHEPQVYVLPPAQEELSRNKVSVTCLIKSFHPPDIAVEWEITGQPEPENNYRTTPPQLDSDGTYFVYSKLSVDRSHWQRGNTYTCSVSHEALHEHHTQKSLTQSPGK ?
Key: 3.35

Hello, the source for this data is patent US20240400708A1, in case you need it.
